Data origin: patent US12447153B2

molecular target: EGFR wild type (EGFR WT) (Homo sapiens (Human), UniProt P00533); assay: Cellular Phosphorylation Assay, Assay 5 (EGF-stimulated EGFR phosphorylation, NIH 3T3 cells); assay type: cell-based; details: EGF-stimulated EGFR WT phosphorylation
Sequence (P00533 25-1210): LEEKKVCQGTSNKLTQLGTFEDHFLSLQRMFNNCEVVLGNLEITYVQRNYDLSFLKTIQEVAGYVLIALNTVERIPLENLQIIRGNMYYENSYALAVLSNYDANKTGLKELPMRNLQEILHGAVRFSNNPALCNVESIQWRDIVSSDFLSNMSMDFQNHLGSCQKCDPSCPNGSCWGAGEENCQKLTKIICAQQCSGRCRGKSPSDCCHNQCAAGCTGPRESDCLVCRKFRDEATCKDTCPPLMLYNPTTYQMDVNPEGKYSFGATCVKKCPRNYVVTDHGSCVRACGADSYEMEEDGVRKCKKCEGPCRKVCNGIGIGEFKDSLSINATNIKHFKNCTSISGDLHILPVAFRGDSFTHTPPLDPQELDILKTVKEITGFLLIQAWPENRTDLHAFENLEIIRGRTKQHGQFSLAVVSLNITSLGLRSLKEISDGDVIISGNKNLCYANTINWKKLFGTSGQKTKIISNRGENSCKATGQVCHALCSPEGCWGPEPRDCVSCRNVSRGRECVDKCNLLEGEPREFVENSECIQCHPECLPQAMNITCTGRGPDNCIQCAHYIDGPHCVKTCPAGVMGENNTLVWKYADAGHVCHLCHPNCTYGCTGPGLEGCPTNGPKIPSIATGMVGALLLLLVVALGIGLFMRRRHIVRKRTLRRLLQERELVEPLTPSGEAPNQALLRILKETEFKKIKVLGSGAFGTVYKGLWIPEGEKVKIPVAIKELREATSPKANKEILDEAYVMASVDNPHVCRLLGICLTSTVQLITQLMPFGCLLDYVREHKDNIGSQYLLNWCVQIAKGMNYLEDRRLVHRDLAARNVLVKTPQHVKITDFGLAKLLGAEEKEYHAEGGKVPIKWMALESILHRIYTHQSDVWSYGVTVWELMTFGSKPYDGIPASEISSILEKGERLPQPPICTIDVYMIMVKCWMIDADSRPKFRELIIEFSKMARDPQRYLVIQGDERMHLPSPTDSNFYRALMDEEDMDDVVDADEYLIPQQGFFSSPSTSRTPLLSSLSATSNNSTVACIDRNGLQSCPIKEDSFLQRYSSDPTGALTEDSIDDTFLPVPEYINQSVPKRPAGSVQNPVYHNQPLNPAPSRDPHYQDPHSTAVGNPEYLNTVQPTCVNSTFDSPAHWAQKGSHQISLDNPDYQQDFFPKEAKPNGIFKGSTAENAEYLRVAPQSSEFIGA
IC50 for assorted molecules
Hi! Could you send only the number? It should be in nM, unit omitted.

# annotated cases, reported IC50 shown
MOLECULE	UNIT_TAG	IC50
C=CC(=O)N1CCN(c2ccc3ncnc(Nc4ccc(Oc5ccc6c(c5)ncn6C)c(Cl)c4)c3n2)CC1	nM	511
C=CC(=O)N1CCC(c2ccc3ncnc(Nc4ccc(Oc5ccc6c(c5)ncn6C)c(C)c4F)c3n2)CC12CC2 (stereo not drawn)	nM	2620
C=CC(=O)N1CCC[C@@H](c2ccc3ncnc(Nc4ccc(Oc5ccc6c(c5)ncn6C)c(C)c4F)c3n2)CC1 (racemic)	nM	2590
C=CC(=O)N1CCC(Oc2nc3c(Nc4ccc(Oc5ccc6cn(C)nc6c5)c(Cl)c4F)ncnc3cc2OC)CC1	nM	215
C=CC(=O)N1CCN(c2nc3c(Nc4ccc(Oc5ccn6ncnc6c5)c(Cl)c4F)ncnc3cc2OC)CC1	nM	69

I would be grateful if you could share the reported IC50 for `C=CC(=O)N1C[C@H]2C[C@H](c3ccc4ncnc(Nc5ccc(Oc6ccn7ncnc7c6)c(Cl)c5F)c4n3)[C@@H]1C2` . 996

If you can, please state the reported IC50 value of `C=CC(=O)N1CCC(Oc2ccc3ncnc(Nc4ccc(Oc5cnn6ccnc6c5)c(Cl)c4)c3n2)CC1` . 1470

I'd like to know its IC50. The molecule in question is C=CC(=O)N1CCCC[C@@H](c2ccc3ncnc(Nc4cc(C)c(Oc5ccc6c(c5)ncn6C)cc4F)c3n2)C1 (racemic) 4370

Look up IC50: `C=CC(=O)N1C[C@@H]2C[C@H]1CN2c1ccc2ncnc(Nc3ccc(Oc4ccn5ncnc5c4)c(C)c3F)c2n1` 49.5

Recorded IC50 of `C=CC(=O)N1CCC(Oc2nc3c(Nc4ccc(Oc5ccn6ncnc6c5)c(Cl)c4F)ncnc3cc2OC)CC1` , please. 46.8

Tell me the measured IC50 of C=CC(=O)N1CC[C@@H](c2ccc3ncnc(Nc4ccc(Oc5ccn6ncnc6c5)c(C)c4F)c3n2)CC12CC2 (single isomer, unassigned) , please. 2310

Request the reported IC50 associated with `C=CC(=O)N1C[C@H]2CN(c3ccc4ncnc(Nc5ccc(Oc6ccc7c(c6)ncn7C)c(C)c5)c4n3)C[C@H]21` 1580

Dear colleague, I am looking for the recorded IC50 of the following molecule: `C=CC(=O)N1CC(Sc2ccc3ncnc(Nc4ccc(Oc5ccc6c(c5)ncn6C)c(C)c4F)c3n2)C1` 976

----------
IC50: recorded values
target: ErbB2 with Exon 20 YVMA insertion (HER2-YVMA) (Homo sapiens (Human), UniProt P04626, INS775YVMA); experiment: Cellular Phosphorylation Assay, Assay 4 (constitutive ErbB2 phosphorylation, NIH 3T3 cells); assay type: cell-based; conditions: ErbB2 YVMA phosphorylation
Sequence (P04626 other isoform, or with tags, fused parts or gaps ins YVMA behind 775): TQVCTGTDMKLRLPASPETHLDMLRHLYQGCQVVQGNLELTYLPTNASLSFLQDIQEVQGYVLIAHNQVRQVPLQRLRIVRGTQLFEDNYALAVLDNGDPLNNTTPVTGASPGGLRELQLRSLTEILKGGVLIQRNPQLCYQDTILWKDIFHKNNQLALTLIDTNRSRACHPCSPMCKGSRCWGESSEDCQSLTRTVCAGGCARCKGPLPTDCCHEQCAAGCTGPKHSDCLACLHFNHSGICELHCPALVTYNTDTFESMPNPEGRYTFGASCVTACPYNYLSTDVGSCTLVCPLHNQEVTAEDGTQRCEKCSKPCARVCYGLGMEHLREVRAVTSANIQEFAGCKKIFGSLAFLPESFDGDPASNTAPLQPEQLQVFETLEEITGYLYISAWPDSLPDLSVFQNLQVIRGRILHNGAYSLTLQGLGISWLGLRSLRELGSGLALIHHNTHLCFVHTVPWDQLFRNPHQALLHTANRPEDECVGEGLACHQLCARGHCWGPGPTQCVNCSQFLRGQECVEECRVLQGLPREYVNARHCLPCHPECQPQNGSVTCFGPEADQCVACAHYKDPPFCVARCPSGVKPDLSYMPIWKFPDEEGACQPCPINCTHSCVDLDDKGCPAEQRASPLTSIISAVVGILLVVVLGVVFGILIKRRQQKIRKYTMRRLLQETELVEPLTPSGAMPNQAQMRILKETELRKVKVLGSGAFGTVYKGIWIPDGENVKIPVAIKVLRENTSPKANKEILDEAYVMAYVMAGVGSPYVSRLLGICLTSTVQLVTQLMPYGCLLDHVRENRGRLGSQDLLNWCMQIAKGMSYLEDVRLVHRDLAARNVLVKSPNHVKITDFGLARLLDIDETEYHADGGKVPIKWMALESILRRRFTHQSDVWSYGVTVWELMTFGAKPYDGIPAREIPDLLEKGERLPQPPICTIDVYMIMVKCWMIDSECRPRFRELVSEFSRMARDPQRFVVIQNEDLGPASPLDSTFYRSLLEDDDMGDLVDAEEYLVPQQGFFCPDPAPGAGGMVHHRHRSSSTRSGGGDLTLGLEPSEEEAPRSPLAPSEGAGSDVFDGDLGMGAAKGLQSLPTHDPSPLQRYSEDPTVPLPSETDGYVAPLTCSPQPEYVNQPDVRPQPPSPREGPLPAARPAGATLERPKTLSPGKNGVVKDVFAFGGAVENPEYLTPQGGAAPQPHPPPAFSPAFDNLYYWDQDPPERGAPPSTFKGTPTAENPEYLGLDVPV
Output spec: scalar in nM, unitless text.

Look over these answered cases.
COMPOUND	UNIT_TAG	MEASUREMENT
C=CC(=O)N1CCN(c2nc3c(Nc4ccc(Oc5ccn6ncnc6c5)c(C)c4F)ncnc3cc2OC)CC1 [Example 152]	nM	20.9
C=CC(=O)N1CCN(c2ccc3ncnc(Nc4cc(C)c(Oc5ccn6ncnc6c5)cc4F)c3n2)CC1 [Example 79]	nM	42.6
C=CC(=O)N1C[C@H]2C[C@H](c3ccc4ncnc(Nc5ccc(Oc6ccn7ncnc7c6)c(Cl)c5F)c4n3)[C@@H]1C2 [Example 230]	nM	21.4
C=CC(=O)N1CC[C@H](c2ccc3ncnc(Nc4ccc(Oc5ccc6c(c5)ncn6C)c(C)c4F)c3n2)CC(C)(C)C1 (racemic) [Example 140]	nM	31.1
C=CC(=O)N1CCC(c2ccc3ncnc(Nc4ccc(Oc5ccc6c(c5)ncn6C)c(C)c4)c3n2)CC1C (centres unmarked) [Example 123]	nM	7.6
C=CC(=O)N1CC[C@@H]2C[C@H]1CN2c1ccc2ncnc(Nc3cc(C)c(Oc4ccc5c(c4)ncn5C)cc3F)c2n1 [Example 66]	nM	6.1
C=CC(=O)N1CC[C@H]2C[C@@H]1CN2c1ccc2ncnc(Nc3ccc(Oc4ccc5c(c4)ncn5C)c(C)c3F)c2n1 [Example 67]	nM	35.8
C=CC(=O)N1[C@H](C)CN(c2ccc3ncnc(Nc4ccc(Oc5ccc6c(c5)ncn6C)c(C)c4)c3n2)C[C@@H]1C [Example 106]	nM	6
C=CC(=O)N1[C@@H]2CC[C@H]1C(c1ccc3ncnc(Nc4ccc(Oc5ccn6ncnc6c5)c(C)c4)c3n1)C2 (single isomer, unassigned) [Example 232]	nM	31.9
C=CC(=O)N1C[C@H]2CC[C@@H]1C[C@@H]2c1ccc2ncnc(Nc3ccc(Oc4ccn5ncnc5c4)c(C)c3F)c2n1 (racemic) [Example 217]	nM	11.1

We now examine a further compound.
Looking for the measured IC50 of CC#CC(=O)N1CCN(c2ccc3ncnc(Nc4ccc(Oc5ccn6ncnc6c5)c(C)c4F)c3n2)C[C@@H]1C(F)F (racemic) [Example 168] , can you help? 16.5
